# Tested on: BEN
# measurement protocol: relative viability (nuclei count vs DMSO), 5 days (fraction); higher = more cells survive
# test conditions: first compound 0.02 µM

- compound: "CC(=O)O[C@@]12CO[C@@H]1C[C@H](O)[C@@]1(C)C(=O)[C@H](O)C3=C(C)[C@@H](OC(=O)[C@H](O)[C@@H](NC(=O)OC(C)(C)C)c4ccccc4)C[C@@](O)([C@@H](OC(=O)c4ccccc4)[C@H]21)C3(C)C [Docetaxel] + Cc1nc(Nc2ncc(C(=O)Nc3c(C)cccc3Cl)s2)cc(N2CCN(CCO)CC2)n1 [Dasatinib] (partner 0.075 µM)"
  relative viability: 0.154
- compound: "CC(=O)O[C@@]12CO[C@@H]1C[C@H](O)[C@@]1(C)C(=O)[C@H](O)C3=C(C)[C@@H](OC(=O)[C@H](O)[C@@H](NC(=O)OC(C)(C)C)c4ccccc4)C[C@@](O)([C@@H](OC(=O)c4ccccc4)[C@H]21)C3(C)C [Docetaxel] + CS(=O)(=O)N1CCN(Cc2cc3nc(-c4cccc5[nH]ncc45)nc(N4CCOCC4)c3s2)CC1 [Pictilisib] (partner 1 µM)"
  relative viability: 0.169
- compound: "CC(=O)O[C@@]12CO[C@@H]1C[C@H](O)[C@@]1(C)C(=O)[C@H](O)C3=C(C)[C@@H](OC(=O)[C@H](O)[C@@H](NC(=O)OC(C)(C)C)c4ccccc4)C[C@@](O)([C@@H](OC(=O)c4ccccc4)[C@H]21)C3(C)C [Docetaxel] + C[C@]1(O)C[C@@H](c2nc(-c3ccc4ccc(-c5ccccc5)nc4c3)c3c(N)nccn32)C1 [Linsitinib] (partner 1 µM)"
  relative viability: 0.189
- compound: "CC(=O)O[C@@]12CO[C@@H]1C[C@H](O)[C@@]1(C)C(=O)[C@H](O)C3=C(C)[C@@H](OC(=O)[C@H](O)[C@@H](NC(=O)OC(C)(C)C)c4ccccc4)C[C@@](O)([C@@H](OC(=O)c4ccccc4)[C@H]21)C3(C)C [Docetaxel] + CCNC(=O)c1noc(-c2cc(C(C)C)c(O)cc2O)c1-c1ccc(CN2CCOCC2)cc1 [Luminespib] (partner 0.01 µM)"
  relative viability: 0.116

* * *

# Tested on: HOP-62
# measurement protocol: relative viability (nuclei count vs DMSO), 5 days (fraction); higher = more cells survive
# test conditions: first compound 0.000632 µM
The compounds listed here are annotated with their relative viability.

- compound: "CC(=O)O[C@@]12CO[C@@H]1C[C@H](O)[C@@]1(C)C(=O)[C@H](O)C3=C(C)[C@@H](OC(=O)[C@H](O)[C@@H](NC(=O)OC(C)(C)C)c4ccccc4)C[C@@](O)([C@@H](OC(=O)c4ccccc4)[C@H]21)C3(C)C [Docetaxel] + CC(=O)Nc1cccc(-n2c(=O)n(C3CC3)c(=O)c3c(Nc4ccc(I)cc4F)n(C)c(=O)c(C)c32)c1 [Trametinib] (partner 0.02 µM)"
  target under test: "HOP-62"
  relative viability: 0.446
- compound: "CC(=O)O[C@@]12CO[C@@H]1C[C@H](O)[C@@]1(C)C(=O)[C@H](O)C3=C(C)[C@@H](OC(=O)[C@H](O)[C@@H](NC(=O)OC(C)(C)C)c4ccccc4)C[C@@](O)([C@@H](OC(=O)c4ccccc4)[C@H]21)C3(C)C [Docetaxel] + O=C(CCCCCCC(=O)Nc1ccccc1)NO [Vorinostat] (partner 1 µM)"
  target under test: "HOP-62"
  relative viability: 0.346

* * *

# Test system: NCI-H650
# measurement protocol: relative viability (nuclei count vs DMSO), 5 days (fraction); higher = more cells survive
# test conditions: first compound 0.1581 µM

- molecule: "Nc1ccn([C@@H]2O[C@H](CO)[C@@H](O)[C@@H]2O)c(=O)n1 [Cytarabine] + O=C(CCCCCCC(=O)Nc1ccccc1)NO [Vorinostat] (partner 1 µM)"
  relative viability: 0.136
- molecule: "COc1cc2nccc(Oc3ccc(NC(=O)Nc4cc(C)on4)c(Cl)c3)c2cc1OC [Tivozanib] + CS(=O)(=O)N1CCN(Cc2cc3nc(-c4cccc5[nH]ncc45)nc(N4CCOCC4)c3s2)CC1 [Pictilisib] (partner 1 µM)"
  relative viability: 0.78
- molecule: "COc1cc2nccc(Oc3ccc(NC(=O)Nc4cc(C)on4)c(Cl)c3)c2cc1OC [Tivozanib] + Cc1nc(Nc2ncc(C(=O)Nc3c(C)cccc3Cl)s2)cc(N2CCN(CCO)CC2)n1 [Dasatinib] (partner 0.075 µM)"
  relative viability: 0.368

* * *

relative viability values for the compounds below.
# Tested on: BEN
# measurement protocol: relative viability (nuclei count vs DMSO), 5 days (fraction); higher = more cells survive
# test conditions: first compound 2.53 µM
measured property: relative viability

- compound: "O=c1[nH]c2ccccc2n1C1CCN(CCCC(c2ccc(F)cc2)c2ccc(F)cc2)CC1 [Pimozide] + O=C(CCCCCCC(=O)Nc1ccccc1)NO [Vorinostat] (partner 1 µM)"
  value reported: 0.601
- compound: "O=c1[nH]c2ccccc2n1C1CCN(CCCC(c2ccc(F)cc2)c2ccc(F)cc2)CC1 [Pimozide] + NC(=O)Nc1cc(-c2cccc(F)c2)sc1C(=O)N[C@H]1CCCNC1 [AZD7762] (partner 0.2 µM)"
  value reported: 0.713
- compound: "O=c1[nH]c2ccccc2n1C1CCN(CCCC(c2ccc(F)cc2)c2ccc(F)cc2)CC1 [Pimozide] + Cc1cc(Nc2cc(N3CCN(C)CC3)nc(Sc3ccc(NC(=O)C4CC4)cc3)n2)n[nH]1 [Tozasertib] (partner 0.1 µM)"
  value reported: 0.471

* * *

# Test system: NCI-H520
# measurement protocol: relative viability (nuclei count vs DMSO), 5 days (fraction); higher = more cells survive
# test conditions: first compound 0.1581 µM
measured property: relative viability

- molecule: "Nc1ccn([C@@H]2O[C@H](CO)[C@@H](O)[C@@H]2O)c(=O)n1 [Cytarabine] + CS(=O)(=O)N1CCN(Cc2cc3nc(-c4cccc5[nH]ncc45)nc(N4CCOCC4)c3s2)CC1 [Pictilisib] (partner 1 µM)"
  measured property: "relative viability"
  value reported: 0.27
- molecule: "Nc1ccn([C@@H]2O[C@H](CO)[C@@H](O)[C@@H]2O)c(=O)n1 [Cytarabine] + CS(=O)(=O)CCNCc1ccc(-c2ccc3ncnc(Nc4ccc(OCc5cccc(F)c5)c(Cl)c4)c3c2)o1 [Lapatinib] (partner 2 µM)"
  measured property: "relative viability"
  value reported: 0.552
- molecule: "COc1cc2nccc(Oc3ccc(NC(=O)Nc4cc(C)on4)c(Cl)c3)c2cc1OC [Tivozanib] + O=C(CCCCCCC(=O)Nc1ccccc1)NO [Vorinostat] (partner 1 µM)"
  measured property: "relative viability"
  value reported: 0.675
- molecule: "Nc1ccn([C@@H]2O[C@H](CO)[C@@H](O)[C@@H]2O)c(=O)n1 [Cytarabine] + COc1cccc2cc(-c3nc([C@H]4CC[C@H](C(=O)O)CC4)n4ncnc(N)c34)[nH]c12 [OSI-027] (partner 0.5 µM)"
  measured property: "relative viability"
  value reported: 0.212
- molecule: "COc1cc2nccc(Oc3ccc(NC(=O)Nc4cc(C)on4)c(Cl)c3)c2cc1OC [Tivozanib] + Cc1nc(NC(=O)N2CCC[C@H]2C(N)=O)sc1-c1ccnc(C(C)(C)C(F)(F)F)c1 [Alpelisib] (partner 2 µM)"
  measured property: "relative viability"
  value reported: 0.74
- molecule: "Nc1ccn([C@@H]2O[C@H](CO)[C@@H](O)[C@@H]2O)c(=O)n1 [Cytarabine] + C[C@@H](Oc1cc(-c2cnn(C3CCNCC3)c2)cnc1N)c1c(Cl)ccc(F)c1Cl [Crizotinib] (partner 1 µM)"
  measured property: "relative viability"
  value reported: 0.56
- molecule: "Nc1ccn([C@@H]2O[C@H](CO)[C@@H](O)[C@@H]2O)c(=O)n1 [Cytarabine] + Cc1cc(Nc2cc(N3CCN(C)CC3)nc(Sc3ccc(NC(=O)C4CC4)cc3)n2)n[nH]1 [Tozasertib] (partner 0.1 µM)"
  measured property: "relative viability"
  value reported: 0.415
- molecule: "COc1cc2nccc(Oc3ccc(NC(=O)Nc4cc(C)on4)c(Cl)c3)c2cc1OC [Tivozanib] + CC1(C)CCC(c2ccc(Cl)cc2)=C(CN2CCN(c3ccc(C(=O)NS(=O)(=O)c4ccc(N[C@H](CCN5CCOCC5)CSc5ccccc5)c(S(=O)(=O)C(F)(F)F)c4)cc3)CC2)C1 [Navitoclax] (partner 0.5 µM)"
  measured property: "relative viability"
  value reported: 0.782
- molecule: "COc1cc2nccc(Oc3ccc(NC(=O)Nc4cc(C)on4)c(Cl)c3)c2cc1OC [Tivozanib] + C[C@]1(O)C[C@@H](c2nc(-c3ccc4ccc(-c5ccccc5)nc4c3)c3c(N)nccn32)C1 [Linsitinib] (partner 1 µM)"
  measured property: "relative viability"
  value reported: 0.935

* * *

# System: NCI-H1944
# measurement protocol: relative viability (nuclei count vs DMSO), 5 days (fraction); higher = more cells survive
# test conditions: first compound 0.006325 µM
measured property: relative viability

- molecule: "CC(=O)O[C@@]12CO[C@@H]1C[C@H](O)[C@@]1(C)C(=O)[C@H](O)C3=C(C)[C@@H](OC(=O)[C@H](O)[C@@H](NC(=O)OC(C)(C)C)c4ccccc4)C[C@@](O)([C@@H](OC(=O)c4ccccc4)[C@H]21)C3(C)C [Docetaxel] + CC(=O)c1c(C)c2cnc(Nc3ccc(N4CCNCC4)cn3)nc2n(C2CCCC2)c1=O [Palbociclib] (partner 0.5 µM)"
  value reported: 0.22
- molecule: "CC(=O)O[C@@]12CO[C@@H]1C[C@H](O)[C@@]1(C)C(=O)[C@H](O)C3=C(C)[C@@H](OC(=O)[C@H](O)[C@@H](NC(=O)OC(C)(C)C)c4ccccc4)C[C@@](O)([C@@H](OC(=O)c4ccccc4)[C@H]21)C3(C)C [Docetaxel] + COc1cc2c(Oc3ccc(NC(=O)C4(C(=O)Nc5ccc(F)cc5)CC4)cc3F)ccnc2cc1OCCCN1CCOCC1 [Foretinib] (partner 0.25 µM)"
  value reported: 0.31
- molecule: "CC(=O)O[C@@]12CO[C@@H]1C[C@H](O)[C@@]1(C)C(=O)[C@H](O)C3=C(C)[C@@H](OC(=O)[C@H](O)[C@@H](NC(=O)OC(C)(C)C)c4ccccc4)C[C@@](O)([C@@H](OC(=O)c4ccccc4)[C@H]21)C3(C)C [Docetaxel] + Nc1nc2[nH]cc(CCc3ccc(C(=O)N[C@@H](CCC(=O)O)C(=O)O)cc3)c2c(=O)[nH]1 [Pemetrexed] (partner 0.2 µM)"
  value reported: 0.248
- molecule: "CC(=O)O[C@@]12CO[C@@H]1C[C@H](O)[C@@]1(C)C(=O)[C@H](O)C3=C(C)[C@@H](OC(=O)[C@H](O)[C@@H](NC(=O)OC(C)(C)C)c4ccccc4)C[C@@](O)([C@@H](OC(=O)c4ccccc4)[C@H]21)C3(C)C [Docetaxel] + CS(=O)(=O)N1CCN(Cc2cc3nc(-c4cccc5[nH]ncc45)nc(N4CCOCC4)c3s2)CC1 [Pictilisib] (partner 1 µM)"
  value reported: 0.322
